Values were extracted from ChEMBL document CHEMBL1156829.

Can you tell me CC50 for the items I'm about to list?
- ASSAY_NOTES: NOVARTIS: Cytotoxicity against human hepatocellular carcinoma cell line (Huh7)
- Assay type: toxicity, cell-based, Huh-7
- PARTICULARS: Huh7 cells (hepatocellular carcinoma cell line)

Field request: CC50 | item: CC(C)c1ccc(C=NNC(=O)c2ccccc2O)cc1
> 10 µM

Field request: CC50 | item: CCN(CC)c1ccc(/C=C(/C#N)c2nc3ccccc3[nH]2)o1
> 0.333 µM

Field request: CC50 | item: CC(C)c1ccc(OCC(=O)NN=Cc2cccc([N+](=O)[O-])c2)cc1
> 10 µM

---

Can you tell me CC50 for the items I'm about to list?
- ASSAY_NOTES: NOVARTIS: Cytotoxicity against human hepatocellular carcinoma cell line (Huh7)
- Format: toxicity, cell-based, Huh-7
- PARTICULARS: Huh7 cells (hepatocellular carcinoma cell line)

Field request: CC50 | item: O=C(CCCn1c(SCc2ccccc2F)nc2ccccc2c1=O)N1CCCC1
> 10 µM

Field request: CC50 | item: CCOC(=O)C1=C(C)N/C(=C\c2cc(C)n(-c3ccc(C)cc3)c2C)C1=O
> 10 µM

Field request: CC50 | item: CN(C)CCN(C)Cc1cc(Br)cs1
> 100 µM

Field request: CC50 | item: CCCN(CCC)S(=O)(=O)c1cc(Br)cc2c1N(C(=O)C1CC1)CC2
> 100 µM

Field request: CC50 | item: CC1CC(C)CN(CCCNc2ccc(C(=O)Nc3ccc(C(F)(F)F)cc3)cc2[N+](=O)[O-])C1 (stereo unspecified)
> 100 µM

Field request: CC50 | item: CCCCCN(C(=O)COc1ccc(Cl)cc1)C(CC)c1nc2ccccc2c(=O)n1-c1cccc(Cl)c1 (stereo unspecified)
> 10 µM

Field request: CC50 | item: Cc1ccc(-c2nnc(SCCCC(=O)NC(Cc3ccccc3)c3ccccc3)n2-c2cccc(Cl)c2)cc1 (stereo unspecified)
> 27.6 µM

Field request: CC50 | item: CC(C)CC(=O)N(C)CCCNc1ccnc2cc(Cl)ccc12
7.44 µM

Field request: CC50 | item: CN(CCCNc1ccnc2cc(Cl)ccc12)S(=O)(=O)c1ccc(Br)cc1
6.88 µM

Field request: CC50 | item: c1ccc(-c2cc(NCc3ccco3)nc(-c3ccccn3)n2)nc1
> 10 µM

Field request: CC50 | item: Cc1cccc(C)c1N(CC(=O)NCc1ccco1)S(C)(=O)=O
> 10 µM

---

Can you tell me CC50 for the items I'm about to list?
- ASSAY_NOTES: NOVARTIS: Cytotoxicity against human hepatocellular carcinoma cell line (Huh7)
- Assay type: toxicity, cell-based, Huh-7
- PARTICULARS: Huh7 cells (hepatocellular carcinoma cell line)

Field request: CC50 | item: CCCCCCN(C(=O)c1ccc(C(C)(C)C)cc1)C(CC)c1nc2ccccc2c(=O)n1-c1ccc(F)cc1 (stereo not given)
> 10 µM

Field request: CC50 | item: O=C(NCc1ccccc1)c1cnc(NCCCn2ccnc2)nc1NCCc1ccccc1
12.8 µM

Field request: CC50 | item: CN(C)c1ccc(NC(=O)C2C3C=CC(O3)C2C(=O)O)cc1 (stereo not given)
32.8 µM

Field request: CC50 | item: CCSCCOC(=O)C1=C(C)NC2=C(C(=O)CCC2)C1c1ccc(OC)c(Br)c1 (stereo not given)
> 100 µM

Field request: CC50 | item: Cc1cc(C)n(-c2ccc(NC(=O)C3CCN(Cc4ccc5nonc5c4)CC3)cc2)n1
> 83.2 µM

Field request: CC50 | item: CCCCC(=O)NC(c1cccc([N+](=O)[O-])c1)c1ccc2cccnc2c1O (stereo not given)
18.8 µM

Field request: CC50 | item: COc1ccc(-c2cc(C(=O)NCc3cccnc3)no2)cc1OC
> 10 µM

Field request: CC50 | item: CCN(CC)CCCN(Cc1cc2cc(OC)ccc2[nH]c1=O)C(=S)Nc1cccc(Cl)c1
20.5 µM

Field request: CC50 | item: NC(=O)c1ccc2c(c1)N=C(c1cccnc1)N(C1CC1)C2
> 10 µM

Field request: CC50 | item: CCN1CCN(c2ccc(Nc3c4ccccc4nc4ccccc34)cc2)CC1
17.4 µM

Field request: CC50 | item: CCN(CC)CCCC(C)Nc1cc(/C=C/c2ccc([N+](=O)[O-])cc2)nc2ccc(OC)cc12 (stereo not given)
> 6.25 µM

Field request: CC50 | item: Cc1ccn2c(NC(C)(C)CC(C)(C)C)c(-c3ccccc3OC(=O)c3ccccc3Br)nc2c1
> 10 µM

Field request: CC50 | item: Cc1cccc(-n2c(-c3ccccc3)nc3ccc(-c4ccc5nc(-c6ccccc6)n(-c6cccc(C)c6)c(=O)c5c4)cc3c2=O)c1
> 10 µM

Field request: CC50 | item: N#C/C(=C\c1cn(Cc2ccccc2Cl)c2ccccc12)c1nn(CCO)c(N)c1C#N
> 10 µM

Field request: CC50 | item: CC(C)(C)c1csc(NC(=O)c2ccc(S(=O)(=O)N3CCCCC3)cc2)n1
49.1 µM

Field request: CC50 | item: CN(C)S(=O)(=O)c1ccc(C(=O)Nc2nc3c(ccc4ccccc43)s2)cc1
> 100 µM

Field request: CC50 | item: CCc1cc(C(=O)N2CCC[C@@H]3CN(C(=O)c4ccc(F)cc4)CC[C@@H]32)n(C)n1
> 100 µM

Field request: CC50 | item: CSc1nc2sc3c(c2c(=O)n1-c1ccccc1)CCN(CCc1ccccc1)C3
> 69.3 µM

Field request: CC50 | item: CCn1c(CNc2ccc(Cl)cc2)nnc1SCC(=O)Nc1cccc(C)c1C
> 10 µM

Field request: CC50 | item: O=C(O)Cn1cnc2nc3n(c2c1=O)CCC3
> 100 µM

Field request: CC50 | item: CCOC(=O)C1=C(C)NC2=C(C(=O)CC(c3ccc(Cl)cc3)C2)C1c1ccc(Br)cc1 (stereo not given)
> 100 µM

Field request: CC50 | item: N#Cc1nc(C(=O)N2CCOCC2)oc1N1CCOCC1
> 10 µM

Field request: CC50 | item: COC(=O)CNC(c1ccccc1)c1cc(Br)ccc1NC(=O)C(Cc1ccccc1)NC(=O)OCc1ccccc1 (stereo not given)
> 100 µM

Field request: CC50 | item: O=C(OC(C(=O)NCc1ccco1)c1ccc(F)cc1)c1ccco1 (stereo not given)
> 10 µM

Field request: CC50 | item: COc1ccc(N=Nc2nc3ccc(Br)cc3n2C)cc1
> 100 µM

Field request: CC50 | item: COc1ccc(C2=C(Nc3ccc(Br)c(C)c3)c3ccccc3C2=O)cc1
> 100 µM

Field request: CC50 | item: CCN(Cc1ccccc1)c1ncnc2ccc(Br)cc12
95.3 µM

Field request: CC50 | item: O=C(NCc1ccco1)C1CCN(S(=O)(=O)c2ccc(Br)cc2)CC1
> 100 µM

Field request: CC50 | item: O=C1CC(c2ccccc2)Oc2ccc(F)cc21 (stereo not given)
> 10 µM

Field request: CC50 | item: Clc1ccc(Nc2nc3nonc3nc2Nc2ccc(Cl)c(Cl)c2)cc1Cl
48.7 µM

Field request: CC50 | item: Cc1cc(Nc2ccc(Cl)c(Cl)c2)n2nc(C)nc2n1
> 100 µM

Field request: CC50 | item: O=C1CN(C(=O)CCC2CCCC2)C(c2ccc(F)cc2)c2cc(Cl)ccc2N1 (stereo not given)
26.3 µM

Field request: CC50 | item: Oc1c(C(Nc2ccccn2)c2ccncc2)ccc2cccnc12 (stereo not given)
> 10 µM

Field request: CC50 | item: CCCCCCN(C(=O)c1ccc2ccccc2c1)C(CC)c1nc2ccccc2c(=O)n1-c1ccc(F)cc1 (stereo not given)
> 10 µM

Field request: CC50 | item: COc1ccc(CNCCN2CCN(c3ccccc3)C[C@@H]2Cc2ccc(O)cc2)cc1
> 10 µM

---

- ASSAY_NOTES: NOVARTIS: Cytotoxicity against human hepatocellular carcinoma cell line (Huh7)
- Format: toxicity, cell-based, Huh-7
- PARTICULARS: Huh7 cells (hepatocellular carcinoma cell line)
MEASURED_PROPERTY: CC50

Field request: CC50 | item: CCc1c2ccc(C)n2cc[n+]1CC
> 100 µM

Field request: CC50 | item: COc1cccc(N2CCN(CCNCCc3ccccc3)[C@@H](Cc3ccc(O)cc3)C2)c1
> 10 µM

Field request: CC50 | item: CC(C)(C)C(=O)Cn1ccc(=N)c2ccccc21
> 100 µM

Field request: CC50 | item: CCOC(=O)c1sc(NC(=O)CSc2nnc(CNC(=O)COc3ccc(Cl)cc3)n2C)c(C(=O)OCC)c1C
> 10 µM

Field request: CC50 | item: Cc1ccc(NC(=O)c2ccc(NCCCN3CCC(C)CC3)c([N+](=O)[O-])c2)cc1F
> 100 µM

Field request: CC50 | item: Clc1nc(Nc2ccccc2)nc(N2CCCCC2)n1
48.3 µM

Field request: CC50 | item: O=C(NC1CCN(CC(O)CN(Cc2ccccc2)S(=O)(=O)c2ccccc2)C1)C1CCCCC1 (centres undefined)
> 10 µM

Field request: CC50 | item: COc1cc(CN2CCN(c3ccccn3)CC2)cc(I)c1O
> 100 µM

Field request: CC50 | item: COc1ccc(OC)c(C2C3=C(CC(C)(C)CC3=O)N(c3ccc(Cl)c(Cl)c3)C3=C2C(=O)CC(C)(C)C3)c1
> 100 µM

Field request: CC50 | item: Cc1oc(C)c2c(=O)cc(-c3cccs3)cc(O)c12
> 100 µM

Field request: CC50 | item: CCC(C)(C)c1ccc(OCCOCC[n+]2ccccc2)c(C(C)(C)CC)c1
12.2 µM

Field request: CC50 | item: CC(Cc1ccccc1)NCc1ccccc1O (centres undefined)
> 10 µM

Field request: CC50 | item: CCN(CC)CCN1C(=O)c2ccccc2NC1c1ccc(Br)cc1 (centres undefined)
47.8 µM

Field request: CC50 | item: NCCCC[C@H]1C(=O)Nc2ccc(O)cc2C(=O)N1C(C(=O)NCC(=O)O)c1cccnc1 (some centres undefined)
> 12.1 µM
